assayReadout: IC50

Request: API: value(readout= IC50, system= COX I (Homo sapiens, UniProt P23219), query= COc1ccc2nc(S(C)(=O)=O)ccc2c1Sc1ccc(F)cc1Cl [Cpd 105] )
Result: > 40 µM

====

Target: COX II (Homo sapiens, UniProt P35354)
Sequence (P35354 18-604): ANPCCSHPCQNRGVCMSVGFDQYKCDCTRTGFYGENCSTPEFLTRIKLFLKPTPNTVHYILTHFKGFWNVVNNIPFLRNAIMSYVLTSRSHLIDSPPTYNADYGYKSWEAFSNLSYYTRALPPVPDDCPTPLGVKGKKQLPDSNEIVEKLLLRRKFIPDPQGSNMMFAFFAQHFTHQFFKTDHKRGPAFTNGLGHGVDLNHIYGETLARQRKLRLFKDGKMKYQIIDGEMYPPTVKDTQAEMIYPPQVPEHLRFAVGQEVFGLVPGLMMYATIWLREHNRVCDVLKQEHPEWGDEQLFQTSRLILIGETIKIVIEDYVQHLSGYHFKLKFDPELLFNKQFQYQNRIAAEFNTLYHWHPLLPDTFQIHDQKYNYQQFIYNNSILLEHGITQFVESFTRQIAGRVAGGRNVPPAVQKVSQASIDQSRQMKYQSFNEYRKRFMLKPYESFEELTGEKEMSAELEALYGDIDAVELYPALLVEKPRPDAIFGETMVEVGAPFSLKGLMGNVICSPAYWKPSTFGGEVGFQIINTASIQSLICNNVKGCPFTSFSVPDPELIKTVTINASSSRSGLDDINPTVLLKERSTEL
assayReadout: IC50

Request: Notebook entry, COX II (Homo sapiens, UniProt P35354) assay: IC50 of COc1ccc2nc(S(C)(=O)=O)ccc2c1Sc1ccccc1Cl = ?
Result: < 200 nM

Request: Notebook: pull reported IC50 for COX II (Homo sapiens, UniProt P35354), entry COc1ccc2nc(S(C)(=O)=O)ccc2c1Sc1ccc(F)cc1Cl
Result: < 200 nM
